# Test system: OVCAR-3
# assay details: NCI tumour cell line growth inhibition, 48 h
Activity calls are given as the source filed them. No stated cut-off is given here; in the data, active = GI50 up to about 1.1 µM and inactive = higher.
Respond only with the outcome that fits, drawn from TRUE = active, FALSE = inactive

Any idea what this test logged for CC(=O)Nc1ccc(/C=C/C(=O)N2CC(CCl)c3c2cc(N)c2ccccc32)cc1 (stereo unspecified) ?
TRUE

Any idea what this test logged for COc1ccc(N2C(=O)C3CC4=CC(=O)C[C@H]4[C@H]32)cc1 (stereo partly specified) ?
FALSE

Any idea what this test logged for COC(=O)[C@H](Cc1c[nH]c2ccccc12)NC(=O)c1ccccc1I ?
FALSE

Any idea what this test logged for Cc1ccc([S+]([O-])(=Nc2ccccc2)C(C(C)C)C(C)(C)Cl)cc1 (stereo unspecified) ?
FALSE

Any idea what this test logged for CC1(C)CCOC(=O)C(Cl)CC1Cl (stereo unspecified) ?
FALSE

Any idea what this test logged for COC1=C2C=[N+](C)C3C(=C2C=CC1OC)Cc1cc2c(cc13)OCO2 (stereo unspecified) ?
FALSE

Any idea what this test logged for COc1ccc(CCN2CCc3c(C)c(C#N)c4nc5ccccc5n4c32)cc1OC ?
FALSE

Any idea what this test logged for COC(=O)C(CC=O)C(=O)C(=O)Nc1cccc(C(F)(F)F)c1 (stereo unspecified) ?
FALSE

Any idea what this test logged for N#CC(C#N)=C1NN=C(Cl)c2ccccc21 ?
FALSE

Any idea what this test logged for C(=C\c1cccc(/C=C/c2ccccn2)n1)/c1ccccn1 ?
FALSE

Any idea what this test logged for CC(C)=CCc1c(O)c(CC=C(C)C)c2oc3c(c(=O)c2c1O)C(C=C(C)C)Oc1cc(O)ccc1-3 (stereo unspecified) ?
FALSE

Any idea what this test logged for c1cc(-c2ccc(-c3ccsc3)s2)cs1 ?
FALSE

Any idea what this test logged for CSc1nc2c(c(=O)[nH]1)N=C(c1ccc([N+](=O)[O-])cc1)CC(c1ccccc1)N2 (stereo unspecified) ?
FALSE

Any idea what this test logged for CCOC(=O)C(CC#Cc1ccc(C#CCC(NC(C)=O)C(=O)OCC)cc1)NC(C)=O (stereo unspecified) ?
FALSE

Any idea what this test logged for Cc1ccc(N2C(=O)CC(=O)N(NC(=O)C(C)Oc3ccccc3C)C2=S)cc1 (stereo unspecified) ?
FALSE

Any idea what this test logged for c1cnc(N2CCN(Cc3c[nH]c4ccccc34)CC2)nc1 ?
FALSE

Any idea what this test logged for COc1ccc(C[C@H]2NC(=O)/C=C/C[C@@H]([C@H](C)[C@H]3O[C@@H]3c3ccccc3)OC(=O)[C@H](CC(C)C)OC(=O)[C@H](C)CNC2=O)cc1 ?
TRUE

Any idea what this test logged for COc1ccc2c(c1)c(=O)c1c(NCCNCCO)ccc3c(=O)n(CCN(C)C)c(=O)n2c31 ?
TRUE

Any idea what this test logged for CC1C(c2ccccc2)OP(=O)(OC(C#N)c2ccccc2)N1C (stereo unspecified) ?
FALSE

Any idea what this test logged for CC(O)CNC(=O)Nc1c(C(F)(F)F)cc(-c2ccccc2)[nH]c1=O (stereo unspecified) ?
FALSE

Any idea what this test logged for O=c1cccccc1NCCCNc1cccccc1=O ?
FALSE

----------
# System: MCF7
# assay details: NCI tumour cell line growth inhibition, 48 h
Calls of active or inactive are those of the source. No stated cut-off is given here; in the data, active = GI50 up to about 1.1 µM and inactive = higher.
Respond only with the outcome that fits, drawn from active, inactive

Any idea what this test logged for CC(=O)/C(C)=N/NC(=O)c1ccccc1O ?
inactive

Any idea what this test logged for C=C(CCC/C(C)=C/C=C/[C@]1(C)CCCc2ccoc21)CC(=O)O ?
inactive

Any idea what this test logged for c1cc2c(cc1NC1=NCCO1)CCC2 ?
inactive

Any idea what this test logged for COc1cccc2c1C(CO)N1C(C#N)C3CC(C(=O)O)C(C1C2)N3C (stereo not given) ?
active

Any idea what this test logged for CCOc1cc(C2CC(c3ccc(NS(=O)(=O)c4cc([N+](=O)[O-])ccc4C)cc3)=NN2S(=O)(=O)c2cc([N+](=O)[O-])ccc2C)ccc1O (stereo not given) ?
inactive
